System: transplanted rice seedlings (Oryza sativa cv. ‘Japonica-M202’)
Test: Test E flooded paddy water application
Format: in vivo
Conditions: 250 g ai/ha; Flood; 21 days; scale 0 to 100 (0 no effect, 100 complete control)
METRIC: Rice, Transplanted plant response rating
One number for each entry.

Below are worked cases with known answers.
- COC(=O)c1nc(-c2ccc(C)cc2)nc(N)c1Cl: 20
- CCOC(=O)c1nc(-c2ccc(C)c(C)c2)nc(N)c1Cl: 0
- Nc1nc(-c2ccc(Cl)cc2)nc(C(=O)[O-])c1Cl.[Na+]: 20

Report Rice, Transplanted plant response rating for every entry below.
1. CCOC(=O)c1nc(-c2ccc(Cl)cc2)nc(N)c1Br
2. CCOC(=O)c1nc(-c2ccc(Cl)cc2F)nc(N)c1Br
3. CCOC(=O)c1nc(-c2ccc(Cl)cc2)nc(N)c1Cl
4. Cc1ccc(-c2nc(N)c(Cl)c(C(=O)O)n2)cc1

0
0
10
10

Below are 4 molecules. Give each one its Rice, Transplanted plant response rating.
1. CCOC(=O)c1nc(-c2ccc(C)cc2)nc(N)c1Cl
2. COC(=O)c1nc(-c2ccc(Br)cc2)nc(N)c1Br
3. Nc1nc(-c2ccc(Cl)cc2)nc(C(=O)O)c1Cl
4. CCOC(=O)c1nc(-c2ccc(F)cc2)nc(N)c1Br

0
0
0
0

====

System: redroot pigweed (Amaranthus retroflexus)
Assay: Test A pre/postemergence
Type: in vivo
Conditions: Amaranthus retroflexus, post-emergence, 240 h, Postemergence, 125 g ai/ha; 0 to 100 scale (0 no effect, 100 complete control); read-out: Plant response rating, Pigweed
Please respond with reported pest or weed control at 125 g/ha for every item in the list.
Give bare numbers, in %.

// known answers, use as guide
- CCOC(=O)c1nc(-c2ccc3ccccc3c2)nc(N)c1Cl: 0
- Nc1nc(-c2ccc(Br)cc2)nc(C(=O)O)c1Cl: 85
- COC(=O)c1nc(C2CC2)nc(N)c1OC: 60

Each compound below has a reported value. Please supply its pest or weed control at 125 g/ha.
1. CNc1nc(C2CC2)nc(C(=O)OC)c1Cl
2. Nc1nc(-c2ccc(Cl)cc2)nc(C(=O)O)c1Cl

1: 90; 2: 100

====

Answer each item with its documented Flatsedge, Rice plant response rating.
Tested on: rice flatsedge (Cyperus iria)
Experiment: Test E flooded paddy water application
Assay type: in vivo
Conditions: 250 g ai/ha; Flood; 21 days; scale 0 to 100 (0 no effect, 100 complete control)
Give bare numbers.

* CCOC(=O)c1nc(-c2ccc(Cl)c(Cl)c2)nc(N)c1Cl | 45

For every listed record, write down its Flatsedge, Rice plant response rating.
1. CCOC(=O)c1nc(-c2ccc(C)c(C)c2)nc(N)c1Cl
2. COC(=O)c1nc(-c2ccc(Cl)cc2)nc(N)c1Cl

[0, 100]

Parameters: items (list). Returns: Flatsedge, Rice plant response rating for each item.
1. CCOC(=O)c1nc(-c2ccc(Br)cc2)nc(N)c1Cl
2. CCOC(=O)c1nc(-c2ccc(Cl)cc2F)nc(N)c1Br
3. COC(=O)c1nc(-c2ccc(Br)cc2)nc(N)c1Cl
4. CCOC(=O)c1nc(-c2ccc(Cl)c(Cl)c2)nc(N)c1Br
5. Nc1nc(-c2ccc(Br)cc2)nc(C(=O)O)c1Cl

1. 100
2. 100
3. 100
4. 0
5. 0
